System tested: the molecule itself
Run description: SEC; Superdex 200 HR 10/30; 20 mM Tris/acetate pH 7.6, 150 mM NaCl, 0.1 mM EDTA, 0.1 mM PMSF, 15 mM beta-mercaptoethanol; 10-120 ug protein in 100 uL loaded; apparent mass from calibration, estimated number of subunits
Below, each entry is listed alongside its reported stoichiometry N.

Worked set:
Input human small heat shock protein HspB5 (alphaB-crystallin), wild type (natural protein, UniProt P02511 1-175, looked up, HspB5 (alphaB-crystallin), human; UniProt P02511; Expressed from pET23b; The printed monomeric mass (20.2 kDa) fits the whole protein; also called αB-crystallin; wild type HspB5; source: E. coli BL21(DE3)pLysS, purified (ammonium sulfate fractionation, HiTrap Q HP, Superdex-200 SEC)) MDIAIHHPWIRRPFFPFHSPSRLFDQFFGEHLLESDLFPTSTSLSPFYLRPPSFLRAPSWFDTGLSEMRLEKDRFSVNLDVKHFSPEELKVKVLGDVIEVHGKHEERQDEHGFISREFHRKYRIPADVDPLTITSSLSSDGVLTVNGPRKQVSGPERTIPITREEKPAVTAAPKK , output reported stoichiometry N.
~27 monomers

Input R21A mutant of human HspB4 (natural protein, UniProt P02489 1-173, looked up) MDVTIQHPWFKRTLGPFYPSALFDQFFGEGLFEYDLLPFLSSTISPYYRQSLFRTVLDSGISEVRSDRDKFVIFLDVKHFSPEDLTVKVQDDFVEIHGKHNERQDDHGYISREFHRRYRLPSNVDQSALSCSLSADGMLTFCGPKIQTGLDATHAERAIPVSREEKPTSAPSS , output reported stoichiometry N.
~30 monomers

Lab note: next protein to report on.
Input R22A mutant of human HspB5 (natural protein, UniProt P02511 1-175, looked up, HspB5 (alphaB-crystallin), human; UniProt P02511; Arg22 of the RLFDQxFG motif replaced by Ala; Expressed from pET23b; also called R22A HspB5; source: E. coli BL21(DE3)pLysS, purified (ammonium sulfate fractionation, HiTrap Q HP, Superdex-200 SEC)) MDIAIHHPWIRRPFFPFHSPSALFDQFFGEHLLESDLFPTSTSLSPFYLRPPSFLRAPSWFDTGLSEMRLEKDRFSVNLDVKHFSPEELKVKVLGDVIEVHGKHEERQDEHGFISREFHRKYRIPADVDPLTITSSLSSDGVLTVNGPRKQVSGPERTIPITREEKPAVTAAPKK , output reported stoichiometry N.
~23 monomers
